- TEST_TARGET: T1, shFcRn (soluble human FcRn) (human, UniProt P55899 24-297; P61769 21-119)
- T1 construct: extracellular domain; Printed only as 'soluble human FcRn'; also called hFcRn (immobilized on a chip)
- T1 sequence (P55899 24-297 limits assumed, chain 1 of 2): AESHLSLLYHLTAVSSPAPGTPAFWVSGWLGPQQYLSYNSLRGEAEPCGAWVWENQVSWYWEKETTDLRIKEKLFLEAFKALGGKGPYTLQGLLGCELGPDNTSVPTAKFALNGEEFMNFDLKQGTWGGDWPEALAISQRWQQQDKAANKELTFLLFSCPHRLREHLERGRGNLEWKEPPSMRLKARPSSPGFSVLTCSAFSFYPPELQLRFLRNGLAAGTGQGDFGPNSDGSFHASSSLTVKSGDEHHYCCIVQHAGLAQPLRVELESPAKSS
- T1 sequence (P61769 21-119 limits assumed, chain 2 of 2): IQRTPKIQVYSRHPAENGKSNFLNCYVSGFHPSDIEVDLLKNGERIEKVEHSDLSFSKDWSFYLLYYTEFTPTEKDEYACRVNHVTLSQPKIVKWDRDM
- TEST_METHOD_NOTES: SPR, shFcRn immobilized on chip, antibody as analyte, pH 6.0;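 also: kinetics fitted with a 1:1 Langmuir model, association 200 s and dissociation 600 s, samples diluted in PBST, double-referenced signals, values averaged across three shFcRn-coated cells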
Please go through the items and note down their koff.
Write down the value, and be sure its unit follows.

Ask: Consider the binder HL161AN variant No. 5 (LC:N25S, HC:Q82E) (antibody, human IgG1, V domains shown, Variable domains only) VL: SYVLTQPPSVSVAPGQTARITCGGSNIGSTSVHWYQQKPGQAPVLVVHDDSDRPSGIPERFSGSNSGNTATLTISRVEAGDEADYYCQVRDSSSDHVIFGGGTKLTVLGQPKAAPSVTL VH: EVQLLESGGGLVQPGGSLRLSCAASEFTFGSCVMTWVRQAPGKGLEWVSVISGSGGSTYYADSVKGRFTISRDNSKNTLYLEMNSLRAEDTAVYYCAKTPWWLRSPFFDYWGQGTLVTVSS and give its measured koff.
Result: 0.000563 s⁻¹

Ask: GET /values?readout=koff&item= HL161AN variant No. 17 (LC:N25Q, HC:C32S Q82S) (antibody, human IgG1, V domains shown, Variable domains only) VL: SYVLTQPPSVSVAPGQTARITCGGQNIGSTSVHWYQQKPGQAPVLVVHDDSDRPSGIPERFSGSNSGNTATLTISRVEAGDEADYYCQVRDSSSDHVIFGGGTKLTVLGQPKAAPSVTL VH: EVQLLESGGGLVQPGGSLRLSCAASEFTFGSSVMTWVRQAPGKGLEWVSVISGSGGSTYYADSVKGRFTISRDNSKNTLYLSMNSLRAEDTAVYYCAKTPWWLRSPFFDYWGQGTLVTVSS
Result: 0.000538 s⁻¹
